System: HL-60
Experiment: NCI tumour cell line growth inhibition, 48 h
Activity calls are given as the source filed them. No stated cut-off is given here; in the data, active = GI50 up to about 1.1 µM and inactive = higher.
Quantity: GI50

Input: Which value of GI50 has been reported for CCOC(=O)C1=C(O)C(=O)c2ccccc2C1=O in the records?
Output: > 100 µM (inactive)

Input: What value of GI50 has been reported for the following molecule? CC1=CCC[C@]2(C)C1=CC(=O)O[C@H]2c1ccoc1
Output: 49.8 µM (inactive)

Input: Consider the molecule shown here: Cc1c(O)c(C)c2c(C)cn(C(=O)C(C)(C)C)c2c1C What is its recorded GI50?
Output: 18.7 µM (inactive)

Input: GI50 lookup needed for OCC(O)C(O)c1nn(-c2ccccc2)c2nc3cc(Cl)c(Cl)cc3nc12 (configuration not stated) , thanks.
Output: 18.2 µM (inactive)

Input: Entry under review: O=C(NC1=C(Cl)C(=O)c2ccccc2C1=O)c1ccc(F)cc1 . Reported GI50?
Output: 0.341 µM (active)

Input: So what's the measured GI50 for this one? CCOC(=O)NC(=S)NN(C)C1=NCC(C)(C)S1
Output: > 100 µM (inactive)

Input: Recorded GI50 of O=c1[nH]c(=O)n(C2OC(CO)C(O)C(O)C2O)cc1F (configuration not stated) , please.
Output: > 64.4 µM (inactive)

Input: Fill in the blank: the reported GI50 of Sc1ncc2[nH]nnc2n1 is ____.
Output: > 100 µM (inactive)

Input: Suppose we examine the molecule CC1=C(/C=C/C(C)=C/C2CC(N(C)C)=CC(=O)O2)C(C)(C)CCC1 (configuration not stated) ; what GI50 value has been reported?
Output: 1.44 µM (inactive)

Input: // returns reported GI50 for input Nc1ncc2c(n1)-c1ccccc1OC2NC1CC1 (configuration not stated)
Output: > 100 µM (inactive)

Input: Quick check: GI50 of O=C(O)c1ccccc1C1c2ccccc2Oc2ccccc21 ?
Output: 39 µM (inactive)

Input: Please report the recorded GI50 for Nc1ccc2c(=O)cc(-c3ccc(Br)s3)[nH]c2n1 .
Output: 2.41 µM (inactive)

---

For each entry below, report its GI50 value.
Test system: EKVX
Assay: NCI tumour cell line growth inhibition, 48 h
The source made the active and inactive calls. No stated cut-off is given here; in the data, active = GI50 up to about 1.1 µM and inactive = higher.

Input: Which GI50 value is on record for Cc1ccccc1NC(=O)CC(=O)NNC(Sc1ccccc1)c1cc(/N=N/c2ccc(Br)cc2)ccc1O (centres undefined) ?
Output: 5.02 µM (inactive)

Input: // GI50 lookup, key: Cc1nc2c(ccc3[nH]c4ccccc4c32)s1
Output: 21.2 µM (inactive)

Input: Give its GI50 value. Item: COc1cc2cc(C(=O)N3CC(CCl)c4ccc([N+](C)(C)Cc5ccccc5[N+](=O)[O-])cc43)[nH]c2c(OC)c1OC (centres undefined)
Output: 3.78 µM (inactive)

Input: Please give the measured GI50 for this compound: CC1(N2CCOCC2)CC2C(=[N+]1[O-])CCC/C2=N/O (centres undefined)
Output: > 100 µM (inactive)

Input: Value lookup for GI50; key = CC1CCCC(C(O)CC2CC(=O)NC(=O)C2)C1O (centres undefined)
Output: > 100 µM (inactive)

Input: Which GI50 value belongs to CSc1c(C#N)c2n(c3ccccc3[n+]2C)c2ncccc12 ?
Output: 21.7 µM (inactive)

Input: Recorded GI50 for CCOC(=O)c1c(N2CCCC2)[nH]c(=O)c(C(c2ccc(N(C)C)cc2)c2c(O)c(C(=O)OCC)c(N3CCCC3)[nH]c2=O)c1O , please?
Output: > 100 µM (inactive)

Input: # get_value(readout='GI50', item= COC(=O)C(/C(=N/N)C(=O)Nc1ccc(C)c(C)c1)c1nc2ccc(Cl)cc2nc1O (centres undefined) )
Output: 74.5 µM (inactive)

Input: Which GI50 is reported for this compound? COc1ccccc1C1C(Cl)C(=O)N1NC(=O)Cc1ccccc1 (centres undefined)
Output: > 100 µM (inactive)

---

Kindly supply the reported GI50 values for the records listed here.
System: NCI-H522
Experiment: NCI tumour cell line growth inhibition, 48 h
Activity calls are given as the source filed them. No stated cut-off is given here; in the data, active = GI50 up to about 1.1 µM and inactive = higher.

Input: What does the data say about its GI50? Entry: COC(=O)/C=C/CC(=O)NS(C)(=O)=O
Output: > 10 µM (inactive)

Input: What does the data say about its GI50? Entry: CC1OC(O[C@@H]2OC=C(C=O)[C@@]3(O)CC[C@H](C)[C@@H]23)C(O)C(O)C1O (stereo partly specified)
Output: > 100 µM (inactive)

Input: Please report the recorded GI50 for CCCCCC(/C=N/NC(N)=S)C(O)(C(F)(F)F)C(F)(F)F (stereo unspecified) .
Output: > 10 µM (inactive)

Input: Suppose we examine the compound Sc1ncc2[nH]nnc2n1 ; what GI50 value has been reported?
Output: > 100 µM (inactive)

Input: Find the recorded GI50 belonging to COC(=O)/C(=N/O)C(C(=O)C=C(C)C)C(=O)C(=O)Nc1nc2ccc([N+](=O)[O-])cc2s1 (stereo unspecified) and report it.
Output: 32.1 µM (inactive)

Input: State the recorded GI50 for this entry: N#Cc1cc2c(n(C3OC(CO)C(O)C(O)C3O)c1=S)CCC2 (stereo unspecified)
Output: > 100 µM (inactive)

Input: Return reported GI50; argument: Cc1cc(S(=O)(=O)Nc2nc3cc(-c4ccc(Cl)cc4)sc3c(=O)n2N)c(S)cc1Cl
Output: 62.4 µM (inactive)

Input: Quick one: GI50 for COc1ccccc1C1C(Cl)C(=O)N1NC(=O)Cc1ccccc1 (stereo unspecified) ?
Output: 48.3 µM (inactive)

Input: What value of GI50 has been recorded for this entry: COC12OCCN(C)C1=CC(=O)C1N=NCC12 (stereo unspecified)
Output: > 100 µM (inactive)

Input: Can you share its GI50? I mean this compound: O=[N+]([O-])C(/C(Cl)=C(\Cl)Br)=C(/Cl)SCc1ccccc1
Output: 1.89 µM (inactive)

Input: // lookup GI50 for CCC1(Br)C(=O)NC(=O)N(C2CC(O)C(CO)O2)C1N=[N+]=[N-] (stereo unspecified)
Output: 94.4 µM (inactive)

Input: Give its GI50 value. Item: CC(C)CCC[C@@H](C)[C@H]1CC[C@H]2C3=C[C@H](OS(=O)(=O)O)[C@@]4(O)C[C@@H](O)CC[C@]4(C)[C@@]3(O)CC[C@]12C
Output: > 100 µM (inactive)

Input: Fill in the blank: the reported GI50 of c1ccc2c(c1)SCCCSCCCS2 is ____.
Output: > 100 µM (inactive)

Input: # GI50 lookup, item CCOP(=O)(OCC)/C(C#N)=C/c1coc2cc(C)cc(C)c2c1=O
Output: > 100 µM (inactive)

Input: # input compound: COc1ccc2nc3ccc(OC)cc3c([S+]([O-])Cc3ccc([N+](=O)[O-])cc3)c2c1 (stereo unspecified) ; wanted: its GI50
Output: 1.73 µM (inactive)

Input: Which GI50 is listed for CCOC(=O)[C@@]1(C)C=C2O[C@@H]3OC4(CCCCC4)O[C@@H]3C2=C2C(O)=CC=C(O)[C@]21C(=O)OC ?
Output: > 68.1 µM (inactive)

Input: Which GI50 value is on record for O/N=C(\CC(O)(C(F)(F)F)C(F)(F)F)c1cccs1 ?
Output: > 10 µM (inactive)

Input: Find the recorded GI50 belonging to CCOc1ccc(/C=C2\NC(=S)N(/C=C3\C(=O)Oc4ccccc4C3=O)C2=O)cc1 and report it.
Output: 20.7 µM (inactive)

Input: Field request: GI50 | item: CN1COCN/C1=N/C#N
Output: > 100 µM (inactive)

Input: Report GI50 for c1ccc(-c2csc3ncn4cnnc4c23)cc1 please.
Output: 51.1 µM (inactive)

Input: Report GI50 for CCCCCC/C=C1\CCC(CN(C)C)C1=O (stereo unspecified) please.
Output: 2.85 µM (inactive)

---

Can you tell me GI50 for the items I'm about to list?
Test system: PC-3
Assay: NCI tumour cell line growth inhibition, 48 h
Active and inactive are the calls of the source. No stated cut-off is given here; in the data, active = GI50 up to about 1.1 µM and inactive = higher.

Input: Give its GI50 value. Item: Cc1ccc(N2CCc3c(C)c(C#N)c4nc5ccccc5n4c32)cc1
Output: > 100 µM (inactive)

Input: Which GI50 reading was recorded for the molecule Cn1c(=O)c2c(nc(NCCCCl)n2CC(=O)NCCCCl)n(C)c1=O ?
Output: > 100 µM (inactive)

Input: Param item = CCCCCCOc1ccc(NC2=C(Cl)C(=O)c3c(O)ccc(O)c3C2=O)cc1 ; retrieve measured GI50.
Output: 3.09 µM (inactive)

Input: Value lookup for GI50; key = O=[N+]([O-])c1cc(Cc2cc([N+](=O)[O-])c3cccnc3c2O)c(O)c2ncccc12
Output: 4.41 µM (inactive)

Input: Fill in the blank: the reported GI50 of CCOC(=O)c1ccc(N(CCOS(C)(=O)=O)CCOS(C)(=O)=O)cc1 is ____.
Output: 50.7 µM (inactive)

Input: Would you kindly share the measured GI50 for CN1C(=O)CC2CCCN2C1=O (stereo unspecified) ?
Output: > 100 µM (inactive)

Input: Entry NC(=O)C(=CNC(=S)Nc1cccc(C(F)(F)F)c1)C(N)=O has what GI50?
Output: > 100 µM (inactive)

Input: Report GI50 for CC(=O)OC(Cc1ccc2ccccc2n1)(C(F)(F)F)C(F)(F)F please.
Output: 2.09 µM (inactive)

Input: Form field: reported GI50 of B.CC(=O)OC1CN2CCC1CC2 (stereo unspecified)
Output: > 100 µM (inactive)

Input: What value of GI50 has been recorded for this entry: Nc1ccc2c(=O)cc(-c3ccc(Br)s3)[nH]c2n1
Output: 2.74 µM (inactive)

Input: What measured GI50 goes with Oc1ccc2c(c1)OCC(O)(c1ccccc1O)C2 (stereo unspecified) ?
Output: > 100 µM (inactive)
